# maps each entry to its LPA2 (Emax)
SYSTEM: LPA2 receptor (Homo sapiens, UniProt Q9HBW0)
Sequence (Q9HBW0 whole entry): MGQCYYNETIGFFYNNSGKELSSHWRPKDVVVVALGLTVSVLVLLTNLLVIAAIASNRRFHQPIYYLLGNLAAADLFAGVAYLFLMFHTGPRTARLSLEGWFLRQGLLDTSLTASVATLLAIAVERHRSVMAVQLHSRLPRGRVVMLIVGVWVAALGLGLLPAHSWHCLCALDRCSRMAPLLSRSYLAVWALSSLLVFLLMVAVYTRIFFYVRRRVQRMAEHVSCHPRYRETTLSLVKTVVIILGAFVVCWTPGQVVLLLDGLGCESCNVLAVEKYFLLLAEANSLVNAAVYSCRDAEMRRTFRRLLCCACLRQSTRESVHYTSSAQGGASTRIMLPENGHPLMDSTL
EXPERIMENTAL_PROTOCOL: LPA2 receptor agonist activity (EC50, Emax)
Type: cell-based
TEST_CONTEXT: Table 1; value in parentheses
Lab note: record the figure alone, no unit after it.

Consider the reported LPA2 (Emax) for these compounds:
Give the observed LPA2 (Emax) of CCCCCCCCCCOP(=O)(O)O for LPA2 receptor (Homo sapiens, UniProt Q9HBW0). 82

Give the observed LPA2 (Emax) of CC/C=C\CCCCCCCCCCOP(=O)(O)O for LPA2 receptor (Homo sapiens, UniProt Q9HBW0). 75

Give the observed LPA2 (Emax) of CCCCCCCC(=O)OC[C@H](COP(O)(O)=S)OC(=O)CCCCCCC for LPA2 receptor (Homo sapiens, UniProt Q9HBW0). 58

Give the observed LPA2 (Emax) of CCCC/C=C\CCCCCCCCOP(O)(O)=S for LPA2 receptor (Homo sapiens, UniProt Q9HBW0). 150

Give the observed LPA2 (Emax) of CC/C=C\CCCCCCCCOP(O)(O)=S [drawing 10] for LPA2 receptor (Homo sapiens, UniProt Q9HBW0). 100

# next compound below
Give the observed LPA2 (Emax) of CCCCCCCCOC[C@H](COP(O)(O)=S)OCCCCCCCC for LPA2 receptor (Homo sapiens, UniProt Q9HBW0). 27
